target: Low molecular weight phosphotyrosine protein phosphatase (Homo sapiens, UniProt P24666); test: Inhibition of human cloned LMW-PTP isoform 2 expressed in Escherichia coli TB1 by competitive inhibition assay
Sequence (P24666 whole entry, canonical isoform): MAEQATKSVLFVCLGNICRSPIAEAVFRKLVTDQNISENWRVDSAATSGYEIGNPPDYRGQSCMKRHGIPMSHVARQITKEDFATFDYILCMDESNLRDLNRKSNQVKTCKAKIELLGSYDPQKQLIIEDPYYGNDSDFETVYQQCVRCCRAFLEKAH
readout-name: pKi
Give bare numbers, as −log10 of the molar value.

Record O=c1c(Cc2ccc(-c3ccccc3)cc2)c(-c2ccc(O)cc2)oc2cc(O)c(O)cc12 / Low molecular weight phosphotyrosine protein phosphatase (Homo sapiens, UniProt P24666), pKi recorded as 6.47

###

Target: Tyrosine-protein phosphatase non-receptor type 1 (Homo sapiens) (UniProt P18031)
Sequence (whole entry): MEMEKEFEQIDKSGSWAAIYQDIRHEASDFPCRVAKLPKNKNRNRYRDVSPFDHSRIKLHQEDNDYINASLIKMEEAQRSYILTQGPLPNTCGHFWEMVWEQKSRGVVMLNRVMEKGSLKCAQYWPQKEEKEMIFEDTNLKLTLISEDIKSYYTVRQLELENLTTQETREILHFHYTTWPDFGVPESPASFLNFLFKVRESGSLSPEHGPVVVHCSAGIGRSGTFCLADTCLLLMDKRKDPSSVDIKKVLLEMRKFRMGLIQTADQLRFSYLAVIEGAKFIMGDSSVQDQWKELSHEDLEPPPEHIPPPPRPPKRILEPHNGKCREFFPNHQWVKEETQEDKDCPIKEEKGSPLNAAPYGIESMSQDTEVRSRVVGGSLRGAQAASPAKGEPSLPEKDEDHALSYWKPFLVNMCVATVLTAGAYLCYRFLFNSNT
Assay: Inhibition of human cloned PTP1B expressed in Escherichia coli TB1 at 20 uM
readout-name: inhibition
In your response, put the unit directly after the numeric value.

O=C(O)c1ccc(-c2ccccc2)cc1O : 5%
O=c1c(Cc2cccc(-c3ccc(O)c(O)c3)c2)c(-c2ccc(O)cc2)oc2cc(O)ccc12 : 50%
O=C(O)c1ccc(-c2cccc(Cc3c(-c4ccc(O)cc4)oc4cc(O)ccc4c3=O)c2)cc1O : 50%

inhibition for Oc1ccc(-c2ccccc2)c(O)c1 is 10%
